Exercise: state measured Peak plasma concentration of parent compound after prodrug compound for each of the compounds provided.
- test_name: Plasma levels after transdermal administration to hairless mice
- Type: in vivo
- condition_info: transdermal, 20% in 1 mL isopropanol, hairless mice
Report the figure along with its unit, number first.

>  <compound>
CC(=O)O.CCN(CC)CCOC(=O)C(C)c1ccc2c(c1)[nH]c1ccc(Cl)cc12 (stereo not shown)

>  <recorded_value>
2000 mg/L

$$$$
>  <compound>
CC(=O)O.CCN(CC)CCOC(=O)Cc1ccccc1Nc1c(Cl)cccc1Cl

>  <recorded_value>
2100 mg/L

$$$$
>  <compound>
CC(=O)O.CCN(CC)CCOC(=O)C(C)c1c(C)n(C(=O)c2ccc(Cl)cc2)c2ccc(OC)cc12 (stereo not shown)

>  <recorded_value>
2000 mg/L

$$$$
>  <compound>
CC(=O)O.CCN(CC)CCOC(=O)Cc1cc(C)c(C(=O)c2ccc(Cl)cc2)n1C

>  <recorded_value>
20 mg/L

$$$$
>  <compound>
CC(=O)O.CCN(CC)CCOC(=O)Cc1ccc(C(=O)c2ccc(C)cc2)n1C

>  <recorded_value>
20 mg/L

$$$$

I'm hoping you can list Peak plasma concentration of parent compound after prodrug compound for every compound here, please.
1. CC(=O)O.CCN(CC)CCOC(=O)Cc1c(C)n(C(=O)c2ccc(Cl)cc2)c2ccc(OC)cc12
2. CC(=O)O.CCN(CC)CCOC(=O)c1ccccc1Nc1cccc(C(F)(F)F)c1

1: 20 mg/L; 2: 20 mg/L
